# targetUnderTest: WT c-MET (Homo sapiens)
# Format: biochemical
# conditions: Table 2; LLE = pIC50 – log D
measureName: ADP-Glo assay LLE WT
Just the number, please.

Please give the measured ADP-Glo assay LLE WT for this compound: Cc1n[nH]c2c(-c3cn(C(C)c4ccccc4)c(=O)[nH]c3=O)cccc12 (stereo not shown) 3.6

Please give the measured ADP-Glo assay LLE WT for this compound: CC(c1ccccc1)n1cc(-c2cc(F)cc3cn[nH]c23)c(=O)[nH]c1=O (stereo not shown) 3.9

Please give the measured ADP-Glo assay LLE WT for this compound: CC(c1ccccc1)n1cc(-c2cccc3c(F)n[nH]c23)c(=O)[nH]c1=O (stereo not shown) 3.1

Please give the measured ADP-Glo assay LLE WT for this compound: CC(c1ccccc1)n1cc(-c2c(F)ccc3cn[nH]c23)c(=O)[nH]c1=O (stereo not shown) 3.2

Please give the measured ADP-Glo assay LLE WT for this compound: CC(c1ccccc1)n1cc(-c2cccc3cn[nH]c23)c(=O)[nH]c1=O (stereo not shown) 3.5

Please give the measured ADP-Glo assay LLE WT for this compound: CC(c1ccccc1)n1cc(-c2cc(F)cc3c(C#N)n[nH]c23)c(=O)[nH]c1=O (stereo not shown) 3.8

Please give the measured ADP-Glo assay LLE WT for this compound: CC(c1ccccc1)n1cc(-c2cccc3c(C#N)n[nH]c23)c(=O)[nH]c1=O (stereo not shown) 3.4

----------
# assayComment: Log D shake-flask method
# conditions: octanol/water, pH 7.4, logD, Table 1, octanol and water at pH7.4
measureName: logD
Just the number, please.

Please give the measured logD for this compound: CC(c1ccc(F)cc1)n1cc(-c2cc(F)cc(F)c2)c(=O)[nH]c1=O (stereo not shown) 3.3

----------
# Tested on: Rat hepatocytes
# assayComment: Rat hepatocyte Clint
# conditions: Table 2; rat hepatocytes
Lab note: compare RH against 40 μL/min/10^6 cells. Equal or greater, write Fulfilled. Smaller, write Not fulfilled.

Reported RH reaches at least 40 μL/min/10^6 cells for CC(c1ccccc1)n1cc(-c2c(F)ccc3cn[nH]c23)c(=O)[nH]c1=O (stereo not drawn) [Compound 20] ? Not fulfilled

Reported RH reaches at least 40 μL/min/10^6 cells for CC(c1ccccc1)n1cc(-c2cccc3c(C#N)n[nH]c23)c(=O)[nH]c1=O (stereo not drawn) [Compound 19] ? Fulfilled

Reported RH reaches at least 40 μL/min/10^6 cells for CC(c1ccccc1)n1cc(-c2cc(F)cc3c(C#N)n[nH]c23)c(=O)[nH]c1=O (stereo not drawn) [Compound 22] ? Fulfilled

Reported RH reaches at least 40 μL/min/10^6 cells for CC(c1ccccc1)n1cc(-c2cc(F)cc3cn[nH]c23)c(=O)[nH]c1=O (stereo not drawn) [Compound 21] ? Not fulfilled

Reported RH reaches at least 40 μL/min/10^6 cells for Cc1n[nH]c2c(-c3cn(C(C)c4ccccc4)c(=O)[nH]c3=O)cccc12 (stereo not drawn) [Compound 18] ? Not fulfilled

Reported RH reaches at least 40 μL/min/10^6 cells for CC(c1ccccc1)n1cc(-c2cccc3c(F)n[nH]c23)c(=O)[nH]c1=O (stereo not drawn) [Compound 17] ? Fulfilled

----------
# targetUnderTest: WT c-MET (Homo sapiens, UniProt P08581)
# Sequence (P08581 25-1390): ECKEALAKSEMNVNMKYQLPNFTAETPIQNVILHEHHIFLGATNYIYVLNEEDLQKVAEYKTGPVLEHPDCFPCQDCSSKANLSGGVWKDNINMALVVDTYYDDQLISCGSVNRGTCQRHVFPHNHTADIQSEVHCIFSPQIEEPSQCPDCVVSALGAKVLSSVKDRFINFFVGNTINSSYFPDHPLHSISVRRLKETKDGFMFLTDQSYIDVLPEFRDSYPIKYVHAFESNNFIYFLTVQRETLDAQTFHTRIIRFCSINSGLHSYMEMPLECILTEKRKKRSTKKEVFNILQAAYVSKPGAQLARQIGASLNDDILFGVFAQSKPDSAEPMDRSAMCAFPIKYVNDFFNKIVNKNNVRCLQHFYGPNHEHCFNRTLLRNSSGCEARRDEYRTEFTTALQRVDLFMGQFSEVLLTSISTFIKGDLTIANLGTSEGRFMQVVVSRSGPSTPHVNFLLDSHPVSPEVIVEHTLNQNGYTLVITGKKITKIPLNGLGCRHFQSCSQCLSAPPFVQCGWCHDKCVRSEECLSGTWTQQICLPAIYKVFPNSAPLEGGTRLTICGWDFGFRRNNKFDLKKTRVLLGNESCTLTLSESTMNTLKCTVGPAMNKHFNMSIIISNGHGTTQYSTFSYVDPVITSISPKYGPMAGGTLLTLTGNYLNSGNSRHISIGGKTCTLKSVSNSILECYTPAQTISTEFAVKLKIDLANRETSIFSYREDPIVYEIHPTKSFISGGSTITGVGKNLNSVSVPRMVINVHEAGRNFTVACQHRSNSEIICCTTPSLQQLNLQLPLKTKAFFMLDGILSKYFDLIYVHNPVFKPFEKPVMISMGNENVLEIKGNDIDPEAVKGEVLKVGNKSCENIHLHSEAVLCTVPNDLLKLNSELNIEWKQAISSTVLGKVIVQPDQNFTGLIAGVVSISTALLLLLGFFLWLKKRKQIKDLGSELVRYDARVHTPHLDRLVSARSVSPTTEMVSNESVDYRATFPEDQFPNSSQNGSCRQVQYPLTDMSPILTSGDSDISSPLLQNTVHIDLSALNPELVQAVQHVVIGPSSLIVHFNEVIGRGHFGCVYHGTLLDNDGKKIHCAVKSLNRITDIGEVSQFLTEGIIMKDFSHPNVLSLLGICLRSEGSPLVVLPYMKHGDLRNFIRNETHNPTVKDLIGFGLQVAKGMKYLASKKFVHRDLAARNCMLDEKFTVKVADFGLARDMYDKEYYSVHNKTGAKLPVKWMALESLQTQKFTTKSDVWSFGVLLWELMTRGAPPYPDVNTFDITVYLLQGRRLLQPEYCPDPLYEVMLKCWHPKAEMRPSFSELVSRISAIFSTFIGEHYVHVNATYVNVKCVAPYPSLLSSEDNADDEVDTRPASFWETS
# Format: binding
# conditions: Table 1; LLE = pKd – log D
Binary label based on SPR assay LLE WT with cut-off 3: below gives t, not below gives f.

Dear reviewer, please state whether CC(c1ccccc1)n1cc(-c2cc(F)cc(F)c2)c(=O)[nH]c1=O (stereo not drawn) [Compound 2] has SPR assay LLE WT strictly beneath 3. t

Dear reviewer, please state whether CC(c1ccc(F)cc1)n1cc(-c2cc(F)cc(F)c2)c(=O)[nH]c1=O (stereo not drawn) [Compound 6] has SPR assay LLE WT strictly beneath 3. t

Dear reviewer, please state whether C[C@@H](c1ccccc1)n1cc(-c2cc(F)cc(F)c2)c(=O)[nH]c1=O [Compound 3] has SPR assay LLE WT strictly beneath 3. t

Dear reviewer, please state whether CC(c1ccccc1)n1cc(-c2cccc3cn[nH]c23)c(=O)[nH]c1=O (stereo not drawn) [Compound 15] has SPR assay LLE WT strictly beneath 3. f

Dear reviewer, please state whether CC(c1ccccc1Cl)n1cc(-c2cc(F)cc(F)c2)c(=O)[nH]c1=O (stereo not drawn) [Compound 5] has SPR assay LLE WT strictly beneath 3. t

Dear reviewer, please state whether CC(c1ccccc1)n1cc(-c2ccccn2)c(=O)[nH]c1=O (stereo not drawn) [Compound 12] has SPR assay LLE WT strictly beneath 3. f

Dear reviewer, please state whether CC(c1cccc(Cl)c1)n1cc(-c2cc(F)cc(F)c2)c(=O)[nH]c1=O (stereo not drawn) [Compound 7] has SPR assay LLE WT strictly beneath 3. t

Dear reviewer, please state whether CC(c1cccc(-c2cn[nH]c2)c1)n1cc(-c2cc(F)cc(F)c2)c(=O)[nH]c1=O (stereo not drawn) [Compound 9] has SPR assay LLE WT strictly beneath 3. t

All figures here come from paper PMC10350928.
